Where do the numbers come from? From patent US12473294B2.

# assayed.system: wildtype LRRK2 (Homo sapiens, UniProt Q5S007)
# Construct: endogenous in cells; host or cells: HEK293 with HiBit knocked in at the 3' end of the endogenous LRRK2 gene, stably expressing firefly luciferase
# Sequence (Q5S007 whole entry): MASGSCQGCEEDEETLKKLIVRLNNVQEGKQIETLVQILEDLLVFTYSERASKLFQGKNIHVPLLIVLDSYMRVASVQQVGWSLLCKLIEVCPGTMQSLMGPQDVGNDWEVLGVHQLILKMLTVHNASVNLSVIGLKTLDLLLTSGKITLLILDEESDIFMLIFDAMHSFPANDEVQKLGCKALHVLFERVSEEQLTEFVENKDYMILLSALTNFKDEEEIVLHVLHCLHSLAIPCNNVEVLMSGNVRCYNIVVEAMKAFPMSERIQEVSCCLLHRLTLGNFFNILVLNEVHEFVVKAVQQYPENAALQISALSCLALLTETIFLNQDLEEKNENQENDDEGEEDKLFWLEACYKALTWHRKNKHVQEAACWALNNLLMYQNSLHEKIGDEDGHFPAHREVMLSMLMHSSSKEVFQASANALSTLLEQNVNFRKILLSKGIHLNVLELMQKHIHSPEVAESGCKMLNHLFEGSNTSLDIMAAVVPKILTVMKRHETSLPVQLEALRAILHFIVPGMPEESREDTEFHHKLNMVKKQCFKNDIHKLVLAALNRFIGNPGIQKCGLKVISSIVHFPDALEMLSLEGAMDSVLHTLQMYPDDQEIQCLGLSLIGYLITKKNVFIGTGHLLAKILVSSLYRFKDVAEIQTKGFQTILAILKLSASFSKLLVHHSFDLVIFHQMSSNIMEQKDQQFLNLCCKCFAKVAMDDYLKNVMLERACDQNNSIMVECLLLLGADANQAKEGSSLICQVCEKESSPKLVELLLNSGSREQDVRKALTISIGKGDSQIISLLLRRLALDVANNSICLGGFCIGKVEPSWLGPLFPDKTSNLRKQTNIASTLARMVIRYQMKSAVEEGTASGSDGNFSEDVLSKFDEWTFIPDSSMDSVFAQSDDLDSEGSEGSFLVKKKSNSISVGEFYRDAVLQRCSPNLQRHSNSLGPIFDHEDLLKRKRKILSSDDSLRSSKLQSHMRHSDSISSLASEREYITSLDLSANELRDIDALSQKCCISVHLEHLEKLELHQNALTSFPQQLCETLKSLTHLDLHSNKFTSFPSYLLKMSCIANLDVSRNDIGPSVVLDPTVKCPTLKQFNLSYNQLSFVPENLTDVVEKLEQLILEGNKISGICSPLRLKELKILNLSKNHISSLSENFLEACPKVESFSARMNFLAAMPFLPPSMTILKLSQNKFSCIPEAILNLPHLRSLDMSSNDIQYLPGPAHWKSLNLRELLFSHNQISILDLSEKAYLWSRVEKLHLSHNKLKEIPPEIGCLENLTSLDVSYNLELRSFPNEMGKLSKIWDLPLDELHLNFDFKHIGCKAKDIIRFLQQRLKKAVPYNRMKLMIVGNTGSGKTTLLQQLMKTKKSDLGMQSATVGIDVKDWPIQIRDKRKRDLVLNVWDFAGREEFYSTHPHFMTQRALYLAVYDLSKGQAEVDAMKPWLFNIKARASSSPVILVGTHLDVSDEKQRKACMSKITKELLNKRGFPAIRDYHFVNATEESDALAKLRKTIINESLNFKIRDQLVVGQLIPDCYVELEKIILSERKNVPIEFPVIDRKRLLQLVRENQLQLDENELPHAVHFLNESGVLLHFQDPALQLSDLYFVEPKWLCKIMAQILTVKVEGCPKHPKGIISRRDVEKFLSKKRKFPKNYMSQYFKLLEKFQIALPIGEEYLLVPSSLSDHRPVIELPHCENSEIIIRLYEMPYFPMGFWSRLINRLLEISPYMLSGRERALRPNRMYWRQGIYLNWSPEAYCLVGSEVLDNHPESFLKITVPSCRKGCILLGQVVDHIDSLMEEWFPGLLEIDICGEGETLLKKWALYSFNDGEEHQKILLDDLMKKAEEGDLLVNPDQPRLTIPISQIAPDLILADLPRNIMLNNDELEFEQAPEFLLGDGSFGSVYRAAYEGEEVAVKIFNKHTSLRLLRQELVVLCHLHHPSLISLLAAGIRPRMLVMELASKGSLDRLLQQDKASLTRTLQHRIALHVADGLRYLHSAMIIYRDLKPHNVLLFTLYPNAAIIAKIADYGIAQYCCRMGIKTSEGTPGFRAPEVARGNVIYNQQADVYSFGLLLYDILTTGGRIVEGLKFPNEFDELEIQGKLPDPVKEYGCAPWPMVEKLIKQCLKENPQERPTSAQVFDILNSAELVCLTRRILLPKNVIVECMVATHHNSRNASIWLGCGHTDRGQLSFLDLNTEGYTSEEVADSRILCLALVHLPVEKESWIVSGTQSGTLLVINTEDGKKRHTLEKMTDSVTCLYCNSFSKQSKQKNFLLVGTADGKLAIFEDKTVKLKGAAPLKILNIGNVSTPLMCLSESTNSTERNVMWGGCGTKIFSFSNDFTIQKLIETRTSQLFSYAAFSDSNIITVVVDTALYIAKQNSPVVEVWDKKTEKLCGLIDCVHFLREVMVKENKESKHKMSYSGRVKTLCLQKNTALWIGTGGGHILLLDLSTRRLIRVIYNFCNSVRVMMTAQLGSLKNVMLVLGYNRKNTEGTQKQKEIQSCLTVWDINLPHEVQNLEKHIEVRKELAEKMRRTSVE
# protocol.description: LRRK2 degradation HiBit assay, wildtype LRRK2 tagged with a HiBit tag in HEK293 cells
# Format: cell-based
# assay.conditions: 24 hours compound incubation, read-out: *WT DC50
observation.type: DC50

compound: CC1=C(C(=O)Nc2ccc3[nH]nc(-c4ccnc(N5C[C@@H](C)N(CCOCCOCCN6CCN(c7ccc8c(c7)C(=O)N(C7CCC(=O)NC7=O)C8=O)CC6)[C@@H](C)C5)c4)c3c2)Cn2nnnc2N1C (stereo partly shown)
reading: ≥ 0.1 µM

The observed DC50 for CC1=C(C(=O)Nc2ccc3[nH]nc(-c4ccnc(N5C[C@@H](C)N(CC6CCN(CC7CCN(c8ccc9c(c8)C(=O)N(C8CCC(=O)NC8=O)C9=O)CC7)CC6)[C@@H](C)C5)c4)c3c2)Cn2nnnc2N1C (stereo partly shown) when tested with wildtype LRRK2 (Homo sapiens, UniProt Q5S007) stands at 0.01 to 0.05 µM

The observed DC50 for CC1=C(C(=O)Nc2ccc3[nH]nc(-c4ccnc(N5CCN(CC6CCN(C7CCN(c8ccc9c(c8)C(=O)N(C8CCC(=O)NC8=O)C9=O)CC7)CC6)CC5)c4)c3c2)[C@@H](C)n2nnnc2N1C (stereo partly shown) when tested with wildtype LRRK2 (Homo sapiens, UniProt Q5S007) stands at ≥ 0.1 µM

The observed DC50 for CC1=C(C(=O)Nc2ccc3[nH]nc(-c4ccnc(N5CCN(CCN6CCN(CC7CCN(c8ccc9c(c8)C(=O)N(C8CCC(=O)NC8=O)C9=O)CC7)CC6)[C@@H](C)C5)c4)c3c2)C(C)(C)n2nnnc2N1C (stereo partly shown) when tested with wildtype LRRK2 (Homo sapiens, UniProt Q5S007) stands at ≥ 0.1 µM

###

# assayed.system: G2019S LRRK2 (Homo sapiens, UniProt Q5S007, G2019S)
# Construct: expressed in transfected cells; host or cells: HEK293 (ATCC CRL-1573)
# Sequence (Q5S007 whole entry G2019S): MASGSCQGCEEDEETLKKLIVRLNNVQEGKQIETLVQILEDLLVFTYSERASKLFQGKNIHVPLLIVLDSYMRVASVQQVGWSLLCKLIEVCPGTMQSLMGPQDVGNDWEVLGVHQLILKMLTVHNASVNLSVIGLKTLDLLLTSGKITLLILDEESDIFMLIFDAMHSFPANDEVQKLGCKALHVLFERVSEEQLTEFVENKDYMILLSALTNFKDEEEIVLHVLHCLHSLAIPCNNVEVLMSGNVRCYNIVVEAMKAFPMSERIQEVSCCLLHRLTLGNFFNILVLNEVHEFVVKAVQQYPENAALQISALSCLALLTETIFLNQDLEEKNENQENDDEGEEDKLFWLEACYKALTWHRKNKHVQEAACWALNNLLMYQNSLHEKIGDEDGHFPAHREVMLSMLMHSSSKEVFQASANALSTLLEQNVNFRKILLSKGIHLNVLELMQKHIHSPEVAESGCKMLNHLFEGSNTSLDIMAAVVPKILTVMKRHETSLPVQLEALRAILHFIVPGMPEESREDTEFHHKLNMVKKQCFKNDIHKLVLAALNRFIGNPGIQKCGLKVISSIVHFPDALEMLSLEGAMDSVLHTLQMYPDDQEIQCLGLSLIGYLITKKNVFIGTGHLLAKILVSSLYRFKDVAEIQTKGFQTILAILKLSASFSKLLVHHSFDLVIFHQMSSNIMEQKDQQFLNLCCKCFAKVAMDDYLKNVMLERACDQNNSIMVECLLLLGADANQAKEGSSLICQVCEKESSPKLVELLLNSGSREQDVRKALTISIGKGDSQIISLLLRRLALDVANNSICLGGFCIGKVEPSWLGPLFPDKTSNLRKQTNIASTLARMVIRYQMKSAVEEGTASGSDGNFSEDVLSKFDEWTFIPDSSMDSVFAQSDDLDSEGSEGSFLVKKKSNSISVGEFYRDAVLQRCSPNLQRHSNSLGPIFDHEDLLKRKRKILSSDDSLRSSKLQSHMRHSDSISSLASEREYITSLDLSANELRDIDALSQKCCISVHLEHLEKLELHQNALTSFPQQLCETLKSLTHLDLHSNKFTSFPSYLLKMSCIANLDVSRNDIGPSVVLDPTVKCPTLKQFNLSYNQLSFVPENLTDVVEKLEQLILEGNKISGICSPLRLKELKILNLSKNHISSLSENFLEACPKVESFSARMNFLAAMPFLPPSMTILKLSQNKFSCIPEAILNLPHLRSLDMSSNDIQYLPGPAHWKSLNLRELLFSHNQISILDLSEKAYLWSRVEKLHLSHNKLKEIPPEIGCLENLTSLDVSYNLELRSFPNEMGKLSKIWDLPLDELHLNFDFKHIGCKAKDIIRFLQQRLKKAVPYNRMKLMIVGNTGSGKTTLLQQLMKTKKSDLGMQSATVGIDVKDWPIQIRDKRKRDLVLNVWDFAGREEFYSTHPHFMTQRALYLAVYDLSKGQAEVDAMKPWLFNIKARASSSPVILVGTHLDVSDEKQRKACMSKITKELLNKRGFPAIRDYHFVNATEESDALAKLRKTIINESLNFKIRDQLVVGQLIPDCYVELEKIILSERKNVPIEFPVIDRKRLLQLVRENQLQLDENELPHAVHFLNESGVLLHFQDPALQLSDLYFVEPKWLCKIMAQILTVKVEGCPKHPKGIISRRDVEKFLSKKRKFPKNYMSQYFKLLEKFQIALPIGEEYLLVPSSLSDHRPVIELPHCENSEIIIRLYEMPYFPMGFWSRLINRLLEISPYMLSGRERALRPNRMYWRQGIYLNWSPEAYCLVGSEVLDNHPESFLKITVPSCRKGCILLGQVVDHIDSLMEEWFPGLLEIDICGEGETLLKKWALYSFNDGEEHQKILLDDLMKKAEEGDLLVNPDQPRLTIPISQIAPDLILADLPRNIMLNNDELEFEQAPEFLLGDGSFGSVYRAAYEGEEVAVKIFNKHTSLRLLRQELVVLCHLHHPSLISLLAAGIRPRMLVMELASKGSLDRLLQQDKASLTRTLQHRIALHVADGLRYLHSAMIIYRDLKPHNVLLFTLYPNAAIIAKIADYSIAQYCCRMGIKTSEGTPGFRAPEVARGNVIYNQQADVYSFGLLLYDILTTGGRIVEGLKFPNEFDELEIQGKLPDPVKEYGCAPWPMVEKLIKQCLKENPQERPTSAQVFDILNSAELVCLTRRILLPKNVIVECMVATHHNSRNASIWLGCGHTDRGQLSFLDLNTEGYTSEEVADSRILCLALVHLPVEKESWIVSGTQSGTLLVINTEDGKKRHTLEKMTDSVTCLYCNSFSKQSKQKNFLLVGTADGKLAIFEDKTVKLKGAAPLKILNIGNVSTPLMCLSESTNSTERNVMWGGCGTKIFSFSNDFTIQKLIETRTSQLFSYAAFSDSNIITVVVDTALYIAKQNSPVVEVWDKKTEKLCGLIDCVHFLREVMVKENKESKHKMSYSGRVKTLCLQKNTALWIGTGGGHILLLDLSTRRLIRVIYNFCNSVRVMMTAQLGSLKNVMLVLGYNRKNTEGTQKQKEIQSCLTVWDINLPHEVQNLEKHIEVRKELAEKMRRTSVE
# protocol.description: LRRK2 degradation HiBit assay, G2019S LRRK2 tagged with a HiBit tag expressed in HEK293 cells
# Format: cell-based
# assay.conditions: HEK293 cells, 24 hours compound incubation
observation.type: DC50

// below: answered molecules
molecule: CC1=C(C(=O)Nc2ccc3[nH]nc(-c4ccnc(N5C[C@@H](C)N(CCN6CCN(c7ccc8c(c7)C(=O)N(C7CCC(=O)NC7=O)C8=O)CC6)[C@@H](C)C5)c4)c3c2)Cn2nnnc2N1C (stereo partly drawn) [compound 5]
assayed.system: G2019S LRRK2 (Homo sapiens, UniProt Q5S007, G2019S)
DC50: ≥ 0.1 µM

molecule: CC1=C(C(=O)Nc2ccc3[nH]nc(-c4ccnc(N5CCN(CCN6CCC(CN7CCN(c8ccc9c(c8)C(=O)N(C8CCC(=O)NC8=O)C9=O)CC7)CC6)[C@@H](C)C5)c4)c3c2)[C@H](C)n2nnnc2N1C (stereo partly drawn) [compound 31]
assayed.system: G2019S LRRK2 (Homo sapiens, UniProt Q5S007, G2019S)
DC50: ≥ 0.1 µM

molecule: CC1=C(C(=O)Nc2ccc3[nH]nc(-c4ccnc(N5CCN(CCN6CCC(CN7CCN(c8ccc9c(c8)C(=O)N(C8CCC(=O)NC8=O)C9=O)CC7)CC6)CC5)c4)c3c2)C(C)(C)n2nnnc2N1C (stereo not drawn) [compound 33]
assayed.system: G2019S LRRK2 (Homo sapiens, UniProt Q5S007, G2019S)
DC50: ≥ 0.1 µM

molecule: CC1=C(C(=O)Nc2ccc3[nH]nc(-c4ccnc(N5CCN(CC6CCN(CC7CCN(c8ccc9c(c8)C(=O)N(C8CCC(=O)NC8=O)C9=O)CC7)CC6)[C@@H](C)C5)c4)c3c2)[C@H](C)n2nnnc2N1C (single isomer, unassigned) [compound 9]
assayed.system: G2019S LRRK2 (Homo sapiens, UniProt Q5S007, G2019S)
DC50: 0.05 to 0.1 µM

molecule: CC1=C(C(=O)Nc2ccc3[nH]nc(-c4ccnc(N5CCO[C@@H](CN6CCN(CC7CCN(c8ccc9c(c8)C(=O)N(C8CCC(=O)NC8=O)C9=O)CC7)CC6)C5)c4)c3c2)C(C)(C)n2nnnc2N1C (stereo partly drawn) [compound 32]
assayed.system: G2019S LRRK2 (Homo sapiens, UniProt Q5S007, G2019S)
DC50: 0.01 to 0.05 µM

The observed DC50 for CC1=C(C(=O)Nc2ccc3[nH]nc(-c4ccnc(N5CCN(CC6CCN(CC7CCN(c8ccc9c(c8)C(=O)N(C8CCC(=O)NC8=O)C9=O)CC7)CC6)CC5)c4)c3c2)[C@@H](C)n2nnnc2N1C (stereo partly drawn) [compound 11] when tested with G2019S LRRK2 (Homo sapiens, UniProt Q5S007, G2019S) stands at 0.01 to 0.05 µM

The observed DC50 for CC1=C(C(=O)Nc2ccc3[nH]nc(-c4ccnc(N5C[C@@H](C)N(CC6CCN(CC7CCN(c8ccc9c(c8)C(=O)N(C8CCC(=O)NC8=O)C9=O)CC7)CC6)[C@@H](C)C5)c4)c3c2)C(C)(C)n2nnnc2N1C (stereo partly drawn) [compound 6] when tested with G2019S LRRK2 (Homo sapiens, UniProt Q5S007, G2019S) stands at 0.01 to 0.05 µM

The observed DC50 for CC1=C(C(=O)Nc2ccc3[nH]nc(-c4ccnc(N5CCN(CC6CN(CC7CCN(c8ccc9c(c8)C(=O)N(C8CCC(=O)NC8=O)C9=O)CC7)C6)CC5)c4)c3c2)[C@@H](C)n2nnnc2N1C (stereo partly drawn) [compound 17] when tested with G2019S LRRK2 (Homo sapiens, UniProt Q5S007, G2019S) stands at 0.05 to 0.1 µM

The observed DC50 for CC1=C(C(=O)Nc2ccc3[nH]nc(-c4ccnc(N5CCN(C6CN(CC7CCN(c8ccc9c(c8)C(=O)N(C8CCC(=O)NC8=O)C9=O)CC7)C6)CC5)c4)c3c2)[C@@H](C)n2nnnc2N1C (stereo partly drawn) [compound 24] when tested with G2019S LRRK2 (Homo sapiens, UniProt Q5S007, G2019S) stands at 0.01 to 0.05 µM

###

Some compounds, each annotated with its measured Dmax.
# assayed.system: wildtype LRRK2 (Homo sapiens, UniProt Q5S007)
# Construct: endogenous in cells; host or cells: HEK293 with HiBit knocked in at the 3' end of the endogenous LRRK2 gene, stably expressing firefly luciferase
# protocol.description: LRRK2 degradation HiBit assay, wildtype LRRK2 tagged with a HiBit tag in HEK293 cells
# Assay type: cell-based
# assay.conditions: 24 hours compound incubation, read-out: ** WT Dmax (%)

compound: CC1=C(C(=O)Nc2ccc3[nH]nc(-c4ccnc(N5CCN(C6CN(CC7CCN(c8ccc9c(c8)C(=O)N(C8CCC(=O)NC8=O)C9=O)CC7)C6)CC5)c4)c3c2)[C@@H](C)n2nnnc2N1C (stereo partly shown) [compound 24]
reading: < 50%

compound: CC1=C(C(=O)Nc2ccc3[nH]nc(-c4ccnc(N5CCN(CC6CN(CC7CCN(c8ccc9c(c8)C(=O)N(C8CCC(=O)NC8=O)C9=O)CC7)C6)CC5)c4)c3c2)[C@@H](C)n2nnnc2N1C (stereo partly shown) [compound 17]
reading: 50 to 70%

compound: CC1=C(C(=O)Nc2ccc3[nH]nc(-c4ccnc(N5CCN(CC6CCN(CC7CCN(c8ccc9c(c8)C(=O)N(C8CCC(=O)NC8=O)C9=O)CC7)CC6)[C@@H](C)C5)c4)c3c2)[C@@H](C)n2nnnc2N1C (single isomer, unassigned) [compound 8]
reading: 50 to 70%

Attention now shifts to the item below.
The observed Dmax for CC1=C(C(=O)Nc2ccc3[nH]nc(-c4ccnc(N5CCN(CC6CCN(CC7CCN(c8ccc9c(c8)C(=O)N(C8CCC(=O)NC8=O)C9=O)CC7)CC6)CC5)c4)c3c2)C(C)(C)n2nnnc2N1C (stereo not shown) [compound 29] when tested with wildtype LRRK2 (Homo sapiens, UniProt Q5S007) stands at < 50%

###

Some compounds, each annotated with its measured DC50.
# assayed.system: wildtype LRRK2 (Homo sapiens, UniProt Q5S007)
# Construct: endogenous in cells; host or cells: HEK293 with HiBit knocked in at the 3' end of the endogenous LRRK2 gene, stably expressing firefly luciferase
# protocol.description: LRRK2 degradation HiBit assay, wildtype LRRK2 tagged with a HiBit tag in HEK293 cells
# Type: cell-based
# assay.conditions: 24 hours compound incubation, read-out: *WT DC50

compound: CC1=C(C(=O)Nc2ccc3[nH]nc(-c4ccnc(N5CCN(C6CN(CC7CCN(c8ccc9c(c8)C(=O)N(C8CCC(=O)NC8=O)C9=O)CC7)C6)CC5)c4)c3c2)[C@@H](C)n2nnnc2N1C (some centres unmarked) [compound 24]
DC50: 10 to 50 nM

Measured DC50 of CC1=C(C(=O)Nc2ccc3[nH]nc(-c4ccnc(N5CCN(CC6CCN(CC7CCN(c8ccc9c(c8)C(=O)N(C8CCC(=O)NC8=O)C9=O)CC7)CC6)[C@@H](C)C5)c4)c3c2)[C@H](C)n2nnnc2N1C (single isomer, unassigned) [compound 9] : ≥ 100 nM
